Taken from patent EP4591884A1.

Below, each of the compounds is paired with its reported Lipid delivery group (1.25 ug/mL) value.
Tested on: H460 cells
Assay: in vitro small nucleic acid delivery by lipid-nucleic acid mixture, cell uptake by flow cytometry
Format: cell-based, human
Settings: lipid 1.25 ug/mL, fluorescently labeled PGY-ssRNA-26, final 100 nM, 9 h incubation, flow cytometry fluorescence
MEASUREMENT_TYPE: Lipid delivery group (1.25 ug/mL) (%)

CPD_SMILES | MEASUREMENT_TYPE | VALUE_MEASURED
CCCCCCCCCCCCCCCCCCCCCCCCCCC/C=C/[C@@H](O)[C@@H](N)CO | Lipid delivery group (1.25 ug/mL) | 62.18
CCCCCCCCCCCCCCCCCCCCCCCCCC[C@@H](O)[C@@H](N)CO | Lipid delivery group (1.25 ug/mL) | 65.81
CCCCCCCCCCCCCCCCCCCCCCCCC[C@@H](O)[C@@H](N)CO | Lipid delivery group (1.25 ug/mL) | 98.52
CCCCCCCCCCCCCCCCCCCCCCC[C@@H](O)[C@@H](N)CO | Lipid delivery group (1.25 ug/mL) | 95.2
CCCCCCCCCCCCCCCCCCC[C@@H](O)[C@@H](N)CO | Lipid delivery group (1.25 ug/mL) | 24.32
CCCCCCCCCCCCCCCCCCCCCCCCCCC[C@@H](O)[C@@H](N)CO | Lipid delivery group (1.25 ug/mL) | 78.84
CCCCCCCCCCCCCCCCCCCCCC[C@@H](O)[C@@H](N)CO | Lipid delivery group (1.25 ug/mL) | 99.26
CCCCCCCCCCCCCCCCCCCCCCCCCCCCCCCC[C@@H](O)[C@@H](N)CO | Lipid delivery group (1.25 ug/mL) | 69.95
CCCCCCCCCCCCCCCCCCCCCCC/C=C/[C@@H](O)[C@@H](N)CO | Lipid delivery group (1.25 ug/mL) | 84.15
CCCCCCCCCCCCCCCCCCCCCCCCCCCCC[C@@H](O)[C@@H](N)CO | Lipid delivery group (1.25 ug/mL) | 46.19
CCCCCCCCCCCCCCCCCCCCCCCCCCCC[C@@H](O)[C@@H](N)CO | Lipid delivery group (1.25 ug/mL) | 68.16
CCCCCCCCCCCCCCCCCCCCCCCCCCCCCC/C=C/[C@@H](O)[C@@H](N)CO | Lipid delivery group (1.25 ug/mL) | 64.66
CCCCCCCCCCCCCCCCCCCCCCCCCCCCC/C=C/[C@@H](O)[C@@H](N)CO | Lipid delivery group (1.25 ug/mL) | 66.64
CCCCCCCCCCCCCCCCCCCCCCCCCCCCCCC[C@@H](O)[C@@H](N)CO | Lipid delivery group (1.25 ug/mL) | 24.56
CCCCCCCCCCCCCCCCCCCCCCCC[C@@H](O)[C@@H](N)CO | Lipid delivery group (1.25 ug/mL) | 97.57
CCCCCCCCCCCCCCCCCCCCCC/C=C/[C@@H](O)[C@@H](N)CO | Lipid delivery group (1.25 ug/mL) | 95.74
CCCCCCCCCCCCCCCCCCCCC[C@@H](O)[C@@H](N)CO | Lipid delivery group (1.25 ug/mL) | 98.13
CCCCCCCCCCCCCCCCCCCC/C=C/[C@@H](O)[C@@H](N)CO | Lipid delivery group (1.25 ug/mL) | 78.43
CCCCCCCCCCCCCCCCCCCCCCCCCCCCCC[C@@H](O)[C@@H](N)CO | Lipid delivery group (1.25 ug/mL) | 72.21
CCCCCCCCCCCCCCCCCCCCCCCCCCCCCCCCC[C@@H](O)[C@@H](N)CO | Lipid delivery group (1.25 ug/mL) | 62.71
CCCCCCCCCCCCCCCCCCCCCCCCCCCC/C=C/[C@@H](O)[C@@H](N)CO | Lipid delivery group (1.25 ug/mL) | 67.01
CCCCCCCCCCCCCCCCCC/C=C/[C@@H](O)[C@@H](N)CO | Lipid delivery group (1.25 ug/mL) | 44.11
